B1: RBBP5 (parent)
chain: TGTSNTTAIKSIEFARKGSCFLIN

# Variants of: B1
# TEST: protein stability index of a GFP-peptide fusion (GPS, HEK-293T) (PSI 1-6); higher = more stable;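 note: lentivirally expressed fusions sorted by FACS into six bins by GFP to DsRed ratio, PSI derived from sequencing read proportions per bin multiplied by bin number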
# RUN_CONDITIONS: c terminus: a fixed tail appended
METRIC_NAME: protein stability index

>>> df
                   sequence  value_reported
0  TGKSNTTAIKSIEFARKGSCFLIN             2.9
1  TGTSNTTFIKSIEFARKGSCFLIN            1.81
2  TGTLNTTAIKSIEFARKGSCFLIN            2.17
3  TGTSNTTAIKSIEFARVGSCFLIN             1.7
4  TGTSNTTTIKSIEFARKGSCFLIN            2.68
5  PGTSNTTAIKSIEFARKGSCFLIN            2.47
6  TGTSNTTAIKSCEFARKGSCFLIN            2.67
7  TGESNTTAIKSIEFARKGSCFLIN            2.55
